Measured combination Emax by item
Test system: HCC1428 (Breast Carcinoma)
Experiment: combination Emax (second highest fraction inhibited in the dose matrix, 72 h); higher = more inhibition; extreme values may be limits of the assay

[
  {
    "molecule": "C[C@@H](c1ccc2nccn2c1)n1nnc2ncc(-c3cnn(C)c3)nc21 [Savolitinib] + CC1(C)CCC(CN2CCN(c3ccc(C(=O)NS(=O)(=O)c4ccc(NCC5CCOCC5)c([N+](=O)[O-])c4)c(Oc4cnc5[nH]ccc5c4)c3)CC2)=C(c2ccc(Cl)cc2)C1 [Venetoclax] (first compound max 1 µM, 7x7, partner max 1 µM)",
    "combination Emax": 0.125
  }
]

Tell me the measured combination Emax of CN(C)CCCOc1ccc(-c2ccc3ncc4c(c3c2)n(C2CCOCC2)c(=O)n4C)cn1 [AZD0156] + C=CCn1c(=O)c2cnc(Nc3ccc(N4CCN(C)CC4)cc3)nc2n1-c1cccc(C(C)(C)O)n1 [AZD1775] (first compound max 1 µM, partner max 1 µM) , please.
0.125
